testSummary: Evaluated for Pharmacokinetic property: Area under the curve
Type: ADME
Parameters: concentration or dose not given beside the values
assayReadout: AUC (nM hr ml)

INSERT INTO results (smilesdata, measuredresult) VALUES
  ('O=c1c(-c2ccc(O)cc2)coc2cc(OCCCCCCBr)ccc12', 62),
  ('O=c1c(-c2ccc(O)cc2)coc2cc(OCCC3OCCCO3)ccc12', 99),
  ('O=c1c(-c2ccc(O)cc2)coc2cc(O[C@@H]3O[C@H](CO)[C@@H](O)[C@H](O)[C@H]3O)ccc12', 120);

(A) O=c1cc(-c2ccccc2)oc2cc(O)cc(O)c12
(B) O=C(O)CCCCCCCCCCOc1ccc2c(=O)c(-c3ccc(O)cc3)coc2c1
In: Between the entries labelled A and B , which has a larger AUC value on record? Answer = label.
Out: A
(A: 110 nM hr ml, B: 56 nM hr ml)

====

testSummary: Evaluated for Pharmacokinetic property: Area under the curve
Format: ADME
Design: concentration or dose not given beside the values
assayReadout: AUC (nM hr ml)

Please review the following examples before continuing.
INSERT INTO measurements (smilesdata, measuredresult) VALUES
  ('O=C(O)CCCCCCOc1ccc2c(=O)c(-c3ccc(O)cc3)coc2c1', 68),
  ('COc1ccc(-c2coc3cc(O)cc(O)c3c2=O)cc1', 99),
  ('O=c1c(-c2ccc(O)cc2)coc2cc(OCCCBr)ccc12', 73);

(A) O=C(O)CCCCCCCCCOc1ccc2c(=O)c(-c3ccc(O)cc3)coc2c1
(B) O=c1c(-c2ccc(O)cc2)coc2cc(O)cc(O)c12
(C) C=CCOc1ccc2c(=O)c(-c3ccc(O)cc3)coc2c1
In: Order these by AUC, descending, and give the full ranking. Answer by naming the labels in the order asked.
Out: B, A, C
(B: 134 nM hr ml, A: 73 nM hr ml, C: 29 nM hr ml)

====

System: Aldehyde dehydrogenase, mitochondrial (Mesocricetus auratus)
testSummary: Accumulation of 5 HIAL in isolated Hamster Liver Mitochondria at 9 uM.
assayReadout: Control (%)

Please review the following examples before continuing.
INSERT INTO measurements (molecule, measuredresult) VALUES
  ('O=c1c(-c2ccc(O)cc2)coc2cc(OCCC3OCCCO3)ccc12', 86.1),
  ('O=C(O)CCCCCCCCCOc1ccc2c(=O)c(-c3ccc(O)cc3)coc2c1', 129),
  ('O=c1c(-c2ccc(O)cc2)coc2cc(OCCCBr)ccc12', 20.5),
  ('O=c1c(-c2ccc(O)cc2)coc2cc(OCCCCCCBr)ccc12', 74),
  ('CCOc1ccc2c(=O)c(-c3ccc(O)cc3)coc2c1', 17.8);

(A) O=c1c(-c2ccc(O)cc2)coc2cc(OCCCCBr)ccc12
(B) O=C(O)CCCCCCOc1ccc2c(=O)c(-c3ccc(O)cc3)coc2c1
In: Between the entries labelled A and B , which has a larger Control value on record? Answer = label.
Out: B

====

Test system: Aldehyde dehydrogenase, mitochondrial (Mesocricetus auratus)
testSummary: Accumulation of 5 HIAL in isolated Hamster Liver Mitochondria at 0.9 uM.
assayReadout: Control (%)

(I) CCOc1ccc2c(=O)c(-c3ccc(O)cc3)coc2c1
(II) C=CCOc1ccc2c(=O)c(-c3ccc(O)cc3)coc2c1
In: Between the entries labelled I and II , which has a larger Control value on record? Answer = label.
Out: II
(II: 91%, I: 62.9%)

====

Tested on: Syrian golden hamster
testSummary: Suppression of Hamster ethanol intake by 0.07 mmol o.d. i.p.
Assay type: functional, Mesocricetus auratus
Catalogue of compounds with associated Suppression
Return type: number; implicit unit %.

INSERT INTO measurements (compound, targetundertest, assayreadout, measuredresult) VALUES
  ('O=c1c(-c2ccc(O)cc2)coc2cc(OCCCCCCBr)ccc12', 'Syrian golden hamster', 'Suppression', 29);

In: Look up and report measured Suppression for this entry: O=c1cc(-c2ccccc2)oc2c(O)c(O)ccc12 [7,8-DIHYDROXYFLAVONE]
Out: 0

In: Look up and report measured Suppression for this entry: O=c1c(-c2ccc(O)cc2)coc2cc(O[C@@H]3O[C@H](CO)[C@@H](O)[C@H](O)[C@H]3O)ccc12
Out: 62

In: Look up and report measured Suppression for this entry: O=c1cc(-c2ccccc2)oc2cc(O)cc(O)c12
Out: 0

In: Look up and report measured Suppression for this entry: O=c1c(-c2ccc(O)cc2)coc2cc(OCCCCBr)ccc12
Out: 14

In: Look up and report measured Suppression for this entry: O=C(O)CCCCCCCCCCOc1ccc2c(=O)c(-c3ccc(O)cc3)coc2c1
Out: 86

In: Look up and report measured Suppression for this entry: O=c1c(-c2ccc(O)cc2)coc2cc(OCCCBr)ccc12
Out: 0

In: Look up and report measured Suppression for this entry: O=c1c(-c2ccc(O)cc2)coc2cc(O)cc(O)c12
Out: 0

In: Look up and report measured Suppression for this entry: O=c1c(-c2ccc(O)cc2)coc2cc(O)ccc12
Out: 22

In: Look up and report measured Suppression for this entry: COc1ccc(-c2coc3cc(O)cc(O)c3c2=O)cc1
Out: 0

In: Look up and report measured Suppression for this entry: O=c1c(-c2ccc(O)cc2)coc2cc(OCC(O)CO)ccc12 (stereo unspecified)
Out: 0

====

testSummary: Evaluated for time required to reach maximum concentration in plasma
Type: ADME
assayReadout: Tmax (h)

INSERT INTO assay_data (smilesdata, measuredresult) VALUES
  ('O=c1cc(-c2ccccc2)oc2cc(O)cc(O)c12', 1);

(a) O=c1c(-c2ccc(O)cc2)coc2cc(OCCCCBr)ccc12
(b) O=c1c(-c2ccc(O)cc2)coc2cc(O)ccc12
(c) O=C(O)CCCCCOc1ccc2c(=O)c(-c3ccc(O)cc3)coc2c1
In: Hi! Can you put these in order of Tmax, lowest number first? Answer by naming the labels in the order asked.
Out: c, b, a

(I) O=c1c(-c2ccc(O)cc2)coc2cc(OCCCCCCBr)ccc12
(II) CCOc1ccc2c(=O)c(-c3ccc(O)cc3)coc2c1
(III) O=C(O)CCCCCCCCCOc1ccc2c(=O)c(-c3ccc(O)cc3)coc2c1
In: Hi! Can you put these in order of Tmax, lowest number first? Answer by naming the labels in the order asked.
Out: III, II, I
(III: 0.5 h, II: 1 h, I: 2 h)

(P) C=CCOc1ccc2c(=O)c(-c3ccc(O)cc3)coc2c1
(Q) O=c1c(-c2ccc(O)cc2)coc2cc(OCCCBr)ccc12
In: Hey, which is lower on measured Tmax, P or Q ? Answer = label.
Out: P
(P: 1 h, Q: 2 h)

====

targetUnderTest: Monoamine oxidase (Mesocricetus auratus)
testSummary: Inhibition of Hamster Liver mitochondrial Monoamine oxidase.
assayReadout: IC50 (µM)

Please review the following examples before continuing.
INSERT INTO assay_data (compound, measuredresult) VALUES
  ('O=c1c(-c2ccc(O)cc2)coc2cc(OCCC3OCCCO3)ccc12', 7),
  ('O=C(O)CCCCCCCCCOc1ccc2c(=O)c(-c3ccc(O)cc3)coc2c1', 10);

(a) O=c1c(-c2ccc(O)cc2)coc2cc(OCCCBr)ccc12
(b) O=C(O)CCCCCCOc1ccc2c(=O)c(-c3ccc(O)cc3)coc2c1
(c) C=CCOc1ccc2c(=O)c(-c3ccc(O)cc3)coc2c1
(d) CCOc1ccc2c(=O)c(-c3ccc(O)cc3)coc2c1
(e) O=c1c(-c2ccc(O)cc2)coc2cc(OCCCCBr)ccc12
In: Hi! Can you put these in order of IC50, lowest number first? Answer by naming the labels in the order asked.
Out: a, d, c, b, e

====

System: Aldehyde dehydrogenase, mitochondrial (Mesocricetus auratus)
testSummary: Accumulation of 5 HIAL in isolated Hamster Liver Mitochondria at 3 uM.
assayReadout: Control (%)

(a) O=c1c(-c2ccc(O)cc2)coc2cc(OCCC3OCCCO3)ccc12
(b) O=c1c(-c2ccc(O)cc2)coc2cc(OCCCCBr)ccc12
(c) C=CCOc1ccc2c(=O)c(-c3ccc(O)cc3)coc2c1
(d) CCOc1ccc2c(=O)c(-c3ccc(O)cc3)coc2c1
In: Form: Sort by [Control] Order [ ascending ] Answer by naming the labels in the order asked.
Out: d, c, b, a

(1) O=C(O)CCCCCCCCCOc1ccc2c(=O)c(-c3ccc(O)cc3)coc2c1
(2) O=c1c(-c2ccc(O)cc2)coc2cc(OCCCCCCBr)ccc12
In: Between the entries labelled 1 and 2 , which has a larger Control value on record? Answer = label.
Out: 1
(1: 189%, 2: 108%)

====

Test system: Aldehyde dehydrogenase, mitochondrial (Mesocricetus auratus)
testSummary: Accumulation of 5 HIAL in isolated Hamster Liver Mitochondria at 0.3 uM.
assayReadout: Control (%)

Please review the following examples before continuing.
INSERT INTO measurements (compound, targetundertest, unit, measuredresult) VALUES
  ('C=CCOc1ccc2c(=O)c(-c3ccc(O)cc3)coc2c1', 'Aldehyde dehydrogenase, mitochondrial (Mesocricetus auratus)', '%', 106),
  ('O=C(O)CCCCCCOc1ccc2c(=O)c(-c3ccc(O)cc3)coc2c1', 'Aldehyde dehydrogenase, mitochondrial (Mesocricetus auratus)', '%', 310),
  ('O=c1c(-c2ccc(O)cc2)coc2cc(OCCC3OCCCO3)ccc12', 'Aldehyde dehydrogenase, mitochondrial (Mesocricetus auratus)', '%', 165),
  ('O=c1c(-c2ccc(O)cc2)coc2cc(OCCCBr)ccc12', 'Aldehyde dehydrogenase, mitochondrial (Mesocricetus auratus)', '%', 75.8),
  ('O=c1c(-c2ccc(O)cc2)coc2cc(OCC(O)CO)ccc12 (centres undefined)', 'Aldehyde dehydrogenase, mitochondrial (Mesocricetus auratus)', '%', 112);

(A) CCOc1ccc2c(=O)c(-c3ccc(O)cc3)coc2c1
(B) O=C(O)CCCCCCCCCOc1ccc2c(=O)c(-c3ccc(O)cc3)coc2c1
(C) O=c1c(-c2ccc(O)cc2)coc2cc(OCCCCCCBr)ccc12
In: Order these by Control, descending, and give the full ranking. Answer by naming the labels in the order asked.
Out: B, C, A
(B: 234%, C: 144%, A: 88.6%)

Data provenance: ChEMBL document CHEMBL1133504
